- test: folding stability dG unfold (combined trypsin and chymotrypsin); higher = more stable
Classes are defined on folding stability dG unfold with ranges lo = under 0.9 kcal/mol, mid = from 0.9 kcal/mol up to 3 kcal/mol, hi = 3 kcal/mol and over

* SAEVIEKTLTETVIGDTVVTPSVVEFPDGSVVEKVTTVSPDGTVTVTTYYFPPDGVRTFLSTTTVPLDLSAG [r14_680_JUSTAS] | mid

Data request: Sort into band: SAGGSAGGSAGGKVKVLSVFELPNNKRLVLIETPSGKKILIVTDSSDPDKVKEKAKEIASAGGSAGGSAGGS [r10_472_TrMRF]
Data returned: mid

Data request: Here is the next sequence: SAGGSAGGSAGKKKLTVTVKKKKPAKEKKKVKTKVVKEKKLELSEEELKKLLDELKELLESAGGSAGGSAGG [r11_418_TrROS_Hall]
Data returned: lo

Data request: Same read-out for SAGGSAGGSAGMSTTIEITDPNLSKEEIKKRIREELGPDVKVTSITEETPDTLKATIVKKSAGGSAGGSAGG [r11_580_JUSTAS] ?
Data returned: lo

Data request: Here is the next sequence: SAGGSAGGSAKYLVVGGKVIEIPSGGDAKIETTKDDRVKVTIDLPDDRKLEFTFPVPKWVGSAGGSAGGSAG [r3_207_TrMRF]
Data returned: lo

Data request: Same lookup for SAMNVTLTKHPDGTYTVGATLPGYSPVSTQTIPSSVPSYTVTYRTPDEVLKVTYKDSGLTPERVPISRLSAG [r14_403_JUSTAS] , please.
Data returned: lo

Data request: Cool, now SAGGMMKYVVRIKIYNENGEEVKEIEIEIEMSEEEVEELARKLAEKLAEELGVEVKIVEVEIEKLEPSAGGS [r16_140_TrROS_Hall]
Data returned: hi

Data request: And for SAGGMIVTTIPGSPAIKVEIPFPETPFSATITIPIAPDGTVTADLKPHPDMSEELIEKIKELAKELLKSAGG [r13_139_JUSTAS] ?
Data returned: lo

Data request: And the next one, SAGGMTITVPVDEEEAEEFIREATGELTALAEKYPDVPIEIEFPLKSGRVIRLRVYPKSKKVEIEVYDSAGG [r13_216_TrMRF] ?
Data returned: mid

Data request: Same question for SAEDEYEVELTFEAPLNEPEVIEKIKKELEELGFEIEEVKVEVLEDPKTVKVTLKARVKGIPPEKLKALSAG [r14_956_TrMRF] please.
Data returned: mid

Data request: SAGGSAKPELVKKLKEALEEEFPDLKVEVVKVDKKNKKIYIKVKSEEEKKRIAELLKKLGIEVEIESAGGSA [r15_196_TrROS_Hall] , same question.
Data returned: hi

Data request: Can you handle SAGGSSEIVELKSIEKKGNSVILTLESKTNDYKVVVVIEGNKIRAYVFDKNGNIIAEFEFDGHPYLSAGGSA [r2_437_TrMRF] next?
Data returned: hi

----------
- test: folding stability dG unfold from chymotrypsin proteolysis; higher = more stable
measurement_label: folding stability dG unfold (kcal/mol)
State the answer as a number, implicitly in kcal/mol.

Some solved entries appear below for comparison.
- SAGGSAGGSAGGLTFRLPDGTRVRVRVELNEDGELRITVEVEPLPPPPPKVEFYSEEELKSAGGSAGGSAGG [r7_660_TrROS_Hall]: 3.06
- SAGGSAGGSAGGDPDLPVYSVSPTTIPAPPGQDSPTPGPNSVTVDANGTATVTETSVSLVSAGGSAGGSAGG [r7_556_JUSTAS]: -0.6

Data request: Which folding stability dG unfold value is on record for SAGGSAPESVKPPVVVVTLVLEFPDGRKLTIPVAHEELAEALEVALALPLALEHDTKLVKVEKANVSAGGSA [r15_140_TrMRF] ?
Data returned: 0.736
